# assay.system: Plasmepsin II (Plasmodium falciparum)
# Sequence (P46925 whole entry): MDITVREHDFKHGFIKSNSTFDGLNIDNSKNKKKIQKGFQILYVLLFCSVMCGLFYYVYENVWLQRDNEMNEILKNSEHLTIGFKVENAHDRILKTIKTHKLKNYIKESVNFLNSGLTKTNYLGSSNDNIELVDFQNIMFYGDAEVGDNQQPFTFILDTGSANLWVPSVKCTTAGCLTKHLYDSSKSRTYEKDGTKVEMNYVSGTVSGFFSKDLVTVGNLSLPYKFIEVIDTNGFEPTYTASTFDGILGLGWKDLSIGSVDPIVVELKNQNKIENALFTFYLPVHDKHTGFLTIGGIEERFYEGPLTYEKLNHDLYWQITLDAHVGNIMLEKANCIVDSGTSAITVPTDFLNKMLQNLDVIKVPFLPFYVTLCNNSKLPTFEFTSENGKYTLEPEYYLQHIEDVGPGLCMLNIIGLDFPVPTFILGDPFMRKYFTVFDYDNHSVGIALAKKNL
# experiment.notes: Inhibition of Plasmodium falciparum PLM2 using Lys-Glu-Phe-Val-Phe-NPhe-Ala-Leu-Lys as substrate by spectrophotometry
# condition.parameters: read-out: Ki
observed.property: Ki (nM)
Numbers only, in nM.

Some solved cases for reference:
compound.structure: CCCCNC(=O)C[C@H](O)[C@H](CC(C)C)NC(=O)[C@@H](NC(=O)c1ccc(Oc2ccc(C(=O)N[C@@H](CC(C)C)C(=O)N[C@@H](C)C(=O)NCCCNc3ccnc4ccccc34)cc2)cc1)[C@@H](C)CC
Ki / nM: 2.6
--
compound.structure: CCCCNC(=O)C[C@H](O)[C@H](CC(C)C)NC(=O)[C@@H](NC(=O)c1ccc(Oc2ccc(C(=O)N[C@@H](C)C(=O)NCCCNc3ccnc4cc(Cl)ccc34)cc2)cc1)[C@@H](C)CC
Ki / nM: 3.8

// next entry
Just so you know, measured Ki for CCCCNC(=O)C[C@H](O)[C@H](CC(C)C)NC(=O)[C@@H](NC(=O)c1ccc(Oc2ccc(C(=O)NCc3ccccc3)cc2)cc1)[C@@H](C)CC came out at 1.3

Where these numbers come from: ChEMBL document CHEMBL2069175
